assay: activity coefficient (dimensionless); of the first substance listed, at infinite dilution; xn = mol fraction of the nth substance listed; settings: 343.1 K; 101 kPa; Liquid; Chromatography; x1 = 0
Observable: activity coefficient
// no unit string in output, number only

Past entries and their recorded results:
| Compound | Observable | Value |
| --- | --- | --- |
| CCCCO [butan-1-ol] + CCCCCC[N+]1(C)CCCC1.O=S(=O)([N-]S(=O)(=O)C(F)(F)F)C(F)(F)F | activity coefficient | 2.04 |
| CCCC(C)=O [pentan-2-one] + CCCCCCCC[N+]1(C)CCCC1.O=S(=O)([N-]S(=O)(=O)C(F)(F)F)C(F)(F)F | activity coefficient | 0.48 |
| CCCO [propan-1-ol] + CCCCCCCC[N+]1(C)CCCC1.O=S(=O)([N-]S(=O)(=O)C(F)(F)F)C(F)(F)F | activity coefficient | 1.14 |

Which activity coefficient value is on record for C1CCCCCC1 [cycloheptane] + CCCCCC[N+]1(C)CCCC1.O=S(=O)([N-]S(=O)(=O)C(F)(F)F)C(F)(F)F ?
25.1

Which activity coefficient value is on record for CCCO [propan-1-ol] + CCCCCC[N+]1(C)CCCC1.O=S(=O)([N-]S(=O)(=O)C(F)(F)F)C(F)(F)F ?
1.49

Which activity coefficient value is on record for CCC(C)CC [3-methylpentane] + CCCCCCCC[N+]1(C)CCCC1.O=S(=O)([N-]S(=O)(=O)C(F)(F)F)C(F)(F)F ?
4.08

Which activity coefficient value is on record for C=CCCCC [hex-1-ene] + CCCCCCCC[N+]1(C)CCCC1.O=S(=O)([N-]S(=O)(=O)C(F)(F)F)C(F)(F)F ?
2.58

Which activity coefficient value is on record for ClC(Cl)(Cl)Cl [tetrachloromethane] + CCCCCC[N+]1(C)CCCC1.O=S(=O)([N-]S(=O)(=O)C(F)(F)F)C(F)(F)F ?
1.86

Which activity coefficient value is on record for C1CCCCCC1 [cycloheptane] + CCCCCCCC[N+]1(C)CCCC1.O=S(=O)([N-]S(=O)(=O)C(F)(F)F)C(F)(F)F ?
15.4

Which activity coefficient value is on record for CCC[N+](=O)[O-] [1-nitropropane] + CCCCCC[N+]1(C)CCCC1.O=S(=O)([N-]S(=O)(=O)C(F)(F)F)C(F)(F)F ?
0.65

Which activity coefficient value is on record for CCC(=O)CC [pentan-3-one] + CCCCCC[N+]1(C)CCCC1.O=S(=O)([N-]S(=O)(=O)C(F)(F)F)C(F)(F)F ?
0.62

Which activity coefficient value is on record for CCCCCCCCCCC [undecane] + CCCCCCCC[N+]1(C)CCCC1.O=S(=O)([N-]S(=O)(=O)C(F)(F)F)C(F)(F)F ?
14.6

Which activity coefficient value is on record for Cc1ccccc1C [1,2-dimethylbenzene] + CCCCCCCC[N+]1(C)CCCC1.O=S(=O)([N-]S(=O)(=O)C(F)(F)F)C(F)(F)F ?
0.97

Which activity coefficient value is on record for CC#N [acetonitrile] + CCCCCC[N+]1(C)CCCC1.O=S(=O)([N-]S(=O)(=O)C(F)(F)F)C(F)(F)F ?
0.48

----------
assay: activity coefficient (dimensionless); of the first substance listed, at infinite dilution; xn = mol fraction of the nth substance listed; conditions: 322.9 K; 101 kPa; Liquid; Chromatography; x1 = 0
activity coefficient reference
// no unit string in output, number only

Past entries and their recorded results:
| Molecule | activity coefficient |
| --- | --- |
| C#CCCCC [1-hexyne] + CCCCCC[N+]1(C)CCCC1.O=S(=O)([N-]S(=O)(=O)C(F)(F)F)C(F)(F)F | 2.1 |
| CCCCCCCCCC [decane] + CCCCCC[N+]1(C)CCCC1.O=S(=O)([N-]S(=O)(=O)C(F)(F)F)C(F)(F)F | 26 |

Below: the item to evaluate.
Which activity coefficient value is on record for c1ccsc1 [thiophene] + CCCCCC[N+]1(C)CCCC1.O=S(=O)([N-]S(=O)(=O)C(F)(F)F)C(F)(F)F ?
0.7
